System: H3255
Assay: relative viability (nuclei count vs DMSO), 5 days (fraction); higher = more cells survive
Settings: first compound 0.253 µM
Kindly supply the reported relative viability values for the records listed here.
One number for each entry.

O=c1[nH]c2ccccc2n1C1CCN(CCCC(c2ccc(F)cc2)c2ccc(F)cc2)CC1 [Pimozide] + Nc1ncn([C@H]2C[C@H](O)[C@@H](CO)O2)c(=O)n1 [Decitabine] (partner 2 µM)
0.538
O=c1[nH]c2ccccc2n1C1CCN(CCCC(c2ccc(F)cc2)c2ccc(F)cc2)CC1 [Pimozide] + Cc1nc(Nc2ncc(C(=O)Nc3c(C)cccc3Cl)s2)cc(N2CCN(CCO)CC2)n1 [Dasatinib] (partner 0.075 µM)
0.355

Next item in the queue.
[ask] What does the data say about its relative viability? Entry: Cc1cnc(-c2cnc(NCCNc3ccc(C#N)cn3)nc2-c2ccc(Cl)cc2Cl)[nH]1 + Cc1cc(Nc2cc(N3CCN(C)CC3)nc(Sc3ccc(NC(=O)C4CC4)cc3)n2)n[nH]1 [Tozasertib] (partner 0.1 µM)
[reply] 0.511

###

Test system: NCI-H1666
Assay: relative viability (nuclei count vs DMSO), 5 days (fraction); higher = more cells survive
Conditions: first compound 0.006325 µM
Assignment: determine reported relative viability for the given compounds.
Give bare numbers.

Reference set, count: 3
CC(=O)O[C@@]12CO[C@@H]1C[C@H](O)[C@@]1(C)C(=O)[C@H](O)C3=C(C)[C@@H](OC(=O)[C@H](O)[C@@H](NC(=O)OC(C)(C)C)c4ccccc4)C[C@@](O)([C@@H](OC(=O)c4ccccc4)[C@H]21)C3(C)C [Docetaxel] + CC(=O)c1c(C)c2cnc(Nc3ccc(N4CCNCC4)cn3)nc2n(C2CCCC2)c1=O [Palbociclib] (partner 0.5 µM)
0.712
CC(=O)O[C@@]12CO[C@@H]1C[C@H](O)[C@@]1(C)C(=O)[C@H](O)C3=C(C)[C@@H](OC(=O)[C@H](O)[C@@H](NC(=O)OC(C)(C)C)c4ccccc4)C[C@@](O)([C@@H](OC(=O)c4ccccc4)[C@H]21)C3(C)C [Docetaxel] + C[C@@H](Oc1cc(-c2cnn(C3CCNCC3)c2)cnc1N)c1c(Cl)ccc(F)c1Cl [Crizotinib] (partner 1 µM)
0.259
CC(=O)O[C@@]12CO[C@@H]1C[C@H](O)[C@@]1(C)C(=O)[C@H](O)C3=C(C)[C@@H](OC(=O)[C@H](O)[C@@H](NC(=O)OC(C)(C)C)c4ccccc4)C[C@@](O)([C@@H](OC(=O)c4ccccc4)[C@H]21)C3(C)C [Docetaxel] + CS(=O)(=O)CCNCc1ccc(-c2ccc3ncnc(Nc4ccc(OCc5cccc(F)c5)c(Cl)c4)c3c2)o1 [Lapatinib] (partner 2 µM)
0.197

Value sought for every listed compound: relative viability.
1. CC(=O)O[C@@]12CO[C@@H]1C[C@H](O)[C@@]1(C)C(=O)[C@H](O)C3=C(C)[C@@H](OC(=O)[C@H](O)[C@@H](NC(=O)OC(C)(C)C)c4ccccc4)C[C@@](O)([C@@H](OC(=O)c4ccccc4)[C@H]21)C3(C)C [Docetaxel] + NC(=O)Nc1cc(-c2cccc(F)c2)sc1C(=O)N[C@H]1CCCNC1 [AZD7762] (partner 0.2 µM)
2. CC(=O)O[C@@]12CO[C@@H]1C[C@H](O)[C@@]1(C)C(=O)[C@H](O)C3=C(C)[C@@H](OC(=O)[C@H](O)[C@@H](NC(=O)OC(C)(C)C)c4ccccc4)C[C@@](O)([C@@H](OC(=O)c4ccccc4)[C@H]21)C3(C)C [Docetaxel] + O=C(c1cc(Cc2n[nH]c(=O)c3ccccc23)ccc1F)N1CCN(C(=O)C2CC2)CC1 [Olaparib] (partner 8 µM)
3. CC(=O)O[C@@]12CO[C@@H]1C[C@H](O)[C@@]1(C)C(=O)[C@H](O)C3=C(C)[C@@H](OC(=O)[C@H](O)[C@@H](NC(=O)OC(C)(C)C)c4ccccc4)C[C@@](O)([C@@H](OC(=O)c4ccccc4)[C@H]21)C3(C)C [Docetaxel] + O=C(CCCCCCC(=O)Nc1ccccc1)NO [Vorinostat] (partner 1 µM)
4. CC(=O)O[C@@]12CO[C@@H]1C[C@H](O)[C@@]1(C)C(=O)[C@H](O)C3=C(C)[C@@H](OC(=O)[C@H](O)[C@@H](NC(=O)OC(C)(C)C)c4ccccc4)C[C@@](O)([C@@H](OC(=O)c4ccccc4)[C@H]21)C3(C)C [Docetaxel] + Cc1nc(Nc2ncc(C(=O)Nc3c(C)cccc3Cl)s2)cc(N2CCN(CCO)CC2)n1 [Dasatinib] (partner 0.075 µM)

[reply]
1: 0.465; 2: 0.703; 3: 0.706; 4: 0.414

Values were extracted from the supplement of paper PMC10307832.
